Experiment: chemical genetic growth profiling, strain panel (AID 1159580);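 also: tested at 20 µM; growth read once vehicle control cultures reached saturation at 30 °C; 1 = growth at the plate median or of vehicle wells; lower values mean less growth of the strain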
Conditions: S. cerevisiae deletion strains, growth OD, locus YDR001C, strain nth1, active compounds read low
In all, about 5,500 compounds went through this assay and about 2,000 (36%) were called active. Not shown: some 18% with an inconclusive outcome. Some of the results follow.
experimental_readout: normalized growth

Worked examples follow.
I am curious: what normalized growth value has been reported for CC1(C)CC2C1CC[C@]1(C)CCC3C(C(=O)O)CC(=O)O[C@@]32C1 (some centres not stated) ?
1.04 (inactive)

Next compound: CC(C)(C)NC[C@H](O)c1ccc(O)c(CO)c1
1.01 (inactive)

Next compound: CC(C)C[C@@H](CN)CC(=O)O
1.01 (inactive)

Next compound: CC(C)=CCCC(C)[C@@H]1CC[C@]2(C)C3=C(CC[C@@]12C)C1(C)CC[C@H](O)C(C)(C)C1CC3 (some centres not stated)
1.07 (inactive)

Next compound: CC(=O)Oc1ccc(/C=C/c2cc(OC(C)=O)cc(OC(C)=O)c2)cc1
0.987 (inactive)

Next compound: CC(=O)Nc1ccc(S(=O)(=O)Nc2onc(C)c2C)cc1
0.963 (inactive)

Now for the compound whose normalized growth we want.
I am curious: what normalized growth value has been reported for CC(=O)O[C@H]1CCC2(C)C3=C(CCC2C1(C)C)[C@]1(C)CCC(C(C)CCC=C(C)C)[C@@]1(C)CC3 (some centres not stated) ?
1.01 (inactive)

---

Catalogue of molecules with associated normalized growth
Assay: chemical genetic growth profiling, strain panel (AID 1159580)
Conditions: S. cerevisiae deletion strains, growth OD, locus YML032C, strain rad52, active compounds read low
Screen size: about 5,500 compounds; about 2,000 (36%) were called active. Not shown: some 18% with an inconclusive outcome. Some of the results follow.
Answer with a bare number; do not write a unit.

Worked examples follow.
I am curious: what normalized growth value has been reported for NCC(=O)c1ccccc1 ?
0.986

Next molecule: NC(=O)NC(=O)Cc1ccccc1
1

Next molecule: CCCN(CCC)S(=O)(=O)c1ccc(C(=O)O)cc1
1.02

Next molecule: CC(C)CCCC(C)[C@H]1CCC2C3CC[C@@H]4C[C@H](O)CC[C@]4(C)C3CC[C@@]21C (some centres undefined)
1

Next molecule: CC(C)CCCC(C)C1CCC2C3CC(=O)[C@H]4C[C@@H](O)CC[C@]4(C)C3CC[C@]12C (some centres undefined)
1

Next molecule: CC(C)CCCC(C)C1CCC2C3CC[C@H]4C[C@@H](O)CC[C@]4(C)C3CC[C@]12C (some centres undefined)
0.975

Continuing:
I am curious: what normalized growth value has been reported for CC(C)CCCC(C)[C@H]1CCC2C3CC=C4C[C@@H](O)CC[C@]4(C)C3CC[C@@]21C (some centres undefined) ?
1

Next molecule: NCC(N)C(=O)c1ccccc1 (centres undefined)
1.01

Next molecule: COc1cc(C/C=C/c2ccccc2)c(OC)cc1O
1.02

---

Test: chemical genetic growth profiling, strain panel (AID 1159580)
Settings: S. cerevisiae deletion strains, growth OD, locus YBR009C, strain hhf1, active compounds read low
The whole screen tested about 5,500 compounds, of which about 2,000 (36%) were called active. Roughly 18% stayed inconclusive and do not appear here. The list shows a part of the results.
experimental_readout: normalized growth
Answer with a bare number; do not write a unit.

I am curious: what normalized growth value has been reported for CC(C)C[C@@H](CN)CC(=O)O ?
1

Next compound: CCCSc1ccc2nc(NC(=O)OC)[nH]c2c1
1.01

Now for the compound whose normalized growth we want.
I am curious: what normalized growth value has been reported for CC(Cc1cccc(C(F)(F)F)c1)NCCOC(=O)c1ccccc1 (stereo unspecified) ?
0.953

---

Catalogue of compounds with associated normalized growth
Assay: chemical genetic growth profiling, strain panel (AID 1159580)
Details: S. cerevisiae deletion strains, growth OD, locus YEL037C, strain rad23, active compounds read low
About 2,000 (36%) of roughly 5,500 compounds were called active. Inconclusive results (about 18%) are left out. The list shows a part of the results.
Answer with a bare number; do not write a unit.

Worked examples follow.
I am curious: what normalized growth value has been reported for CC(=O)OCC(=O)[C@@]1(O)[C@H](C)CC2C3CCC4=CC(=O)C=C[C@]4(C)[C@@]3(F)[C@@H](O)C[C@@]21C (some centres not stated) ?
0.98

Next compound: CN[C@@H]1[C@H](O)[C@H](NC)[C@H]2O[C@@]3(O)C(=O)C[C@@H](C)O[C@H]3O[C@@H]2[C@H]1O
0.998

Next compound: CCOC(=O)[C@H](CCc1ccccc1)N[C@@H](C)C(=O)N1CCC[C@H]1C(=O)O
0.988

Next compound: OC[C@H]1O[C@@H](O[C@H]2[C@H](O)[C@@H](O)[C@@H](O)O[C@@H]2CO)[C@H](O)[C@@H](O)[C@@H]1O
1.01

Next compound: CNNC
1.02

Next compound: C[C@H](CCC(=O)O)[C@H]1CCC2C3C(=O)CC4CC(=O)CC[C@]4(C)C3CC(=O)[C@@]21C (some centres not stated)
0.983

Continuing:
I am curious: what normalized growth value has been reported for CC(C)=CCc1c2c(c3occ(-c4ccc(O)c(O)c4)c(=O)c3c1O)C=CC(C)(C)O2 ?
0.977

Next compound: CC(CCC(=O)O)[C@H]1CCC2C3CC[C@@H]4C[C@H](O)CC[C@]4(C)C3C=C[C@@]21C (some centres not stated)
0.995

Next compound: CS(=O)(=O)Nc1ccc([N+](=O)[O-])cc1Oc1ccccc1
0.995

---

Experiment: chemical genetic growth profiling, strain panel (AID 1159580);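 also: tested at 20 µM; growth read once vehicle control cultures reached saturation at 30 °C; 1 = growth at the plate median or of vehicle wells; lower values mean less growth of the strain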
Conditions: S. cerevisiae deletion strains, growth OD, locus YKR001C, strain vps1, active compounds read low
Out of some 5,500 compounds screened, about 2,000 (36%) were called active. Roughly 18% stayed inconclusive and do not appear here. Some of the results follow.
experimental_readout: normalized growth
Answer with a bare number; do not write a unit.

Worked examples follow.
I am curious: what normalized growth value has been reported for CN(C)[C@@H]1C(=O)C(C(N)=O)=C(O)[C@@]2(O)C(=O)C3=C(O)c4c(O)ccc(Cl)c4[C@@](C)(O)[C@H]3C[C@@H]12 ?
0.978

Next molecule: Cc1cc(=O)[nH]c(=S)[nH]1
1.01

Next molecule: N[C@@H](CCC(=O)N[C@@H](CS)C(=O)NCC(=O)O)C(=O)O
0.994

Next molecule: C/C1=C/CC(C)(C)/C=C/C/C(C)=C/CC1
0.98

Next molecule: CC(=O)Oc1cccc(O)c1
1.02

Continuing:
I am curious: what normalized growth value has been reported for NC1=NCCN1CC(=O)O ?
0.989

Next molecule: C=C(C)C1(O)OC(=O)C=C1OC (stereo unspecified)
0.995

Next molecule: CC[N+](C)(C)c1cccc(O)c1
0.97

Next molecule: O=P1(N(CCCl)CCCl)NCCCO1 (stereo unspecified)
1.03

Next molecule: CC(=O)Oc1ccc(C(c2ccc(OC(C)=O)cc2)c2ccccn2)cc1
0.984

Next molecule: CC(=O)O[C@H]1CC[C@@]2(C)C(=CC(=O)C3C4CCC(C(C)CCCC(C)C)[C@@]4(C)CCC32)C1 (stereo partly specified)
1.03

Next molecule: NNCc1cccc(O)c1
1

Next molecule: CN(C)C1C(=O)C(C(N)=O)=C(O)C2(O)C(=O)C3=C(O)c4c(O)ccc(Cl)c4C(C)(O)C3CC12 (stereo unspecified)
0.985

Next molecule: CC(=O)N[C@@H](Cc1c[nH]c2ccccc12)C(N)=O
1.01

Next molecule: N=C(N)N
0.996

Next molecule: COc1cc(C/C=C/c2ccccc2)c(OC)cc1O
0.969

---

Assay: chemical genetic growth profiling, strain panel (AID 1159580);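 also: tested at 20 µM; growth read once vehicle control cultures reached saturation at 30 °C; 1 = growth at the plate median or of vehicle wells; lower values mean less growth of the strain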
Details: S. cerevisiae deletion strains, growth OD, locus YOR061W, strain CKA2, active compounds read low
The campaign covered roughly 5,500 compounds. About 2,000 (36%) were called active. Another 18% or so got no clear call; they are omitted. This is one part of the list.
Catalogue of compounds with associated normalized growth
Answer with a bare number; do not write a unit.

I am curious: what normalized growth value has been reported for N[C@@H](CCC(=O)N[C@@H](CS)C(=O)NCC(=O)O)C(=O)O ?
0.993

Next compound: O=C(NCO)c1cccnc1
0.991

Next compound: O=C(NOC(=O)c1ccccc1)c1ccccc1
0.0894

Next compound: COc1c(Br)csc1C(=O)O/N=C(/N)c1cc(C(F)(F)F)cc(C(F)(F)F)c1
0.97

Continuing:
I am curious: what normalized growth value has been reported for CNNC ?
1.02

---

Assay: chemical genetic growth profiling, strain panel (AID 1159580);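 also: tested at 20 µM; growth read once vehicle control cultures reached saturation at 30 °C; 1 = growth at the plate median or of vehicle wells; lower values mean less growth of the strain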
Settings: S. cerevisiae deletion strains, growth OD, locus YER015W, strain faa2
The campaign covered roughly 5,500 compounds. About 2,000 (36%) were called active. Another 18% or so got no clear call; they are omitted. Cut-off read from the data, not from the text of the source: active = normalized growth mostly below about 0.91 (no sharp cut-off); inconclusive = no clear call, values can overlap the other calls; inactive = mostly above about 0.92. Some of the results follow.
Respond only with the outcome that fits, drawn from yes (1) for active, no (0) for inactive

Below are worked cases with known answers.
Check the results log: what was the call for O=P1(N(CCCl)CCCl)NCCCO1 (stereo not drawn) ?
no (0)

Next compound: CN(C)[C@@H]1C(=O)C(C(N)=O)=C(O)[C@@]2(O)C(=O)C3=C(O)c4c(O)cccc4[C@@](C)(O)[C@H]3[C@H](O)[C@@H]12
no (0)

Next compound: CC(CCC(=O)O)[C@H]1CCC2C3C(=O)C[C@@H]4CC(=O)CC[C@]4(C)C3CC(=O)[C@@]21C (stereo partly drawn)
no (0)

Next compound: CN(C)CCCN1c2ccccc2Sc2ccccc21
no (0)

Continuing:
Check the results log: what was the call for CCC(C)[C@H]1O[C@]2(C=C[C@@H]1C)C[C@@H]1C[C@@H](C/C=C(\C)[C@@H](OC3C[C@H](OC)C(O[C@H]4C[C@H](OC)[C@@H](O)[C@H](C)O4)[C@H](C)O3)[C@@H](C)/C=C/C=C3\CO[C@@H]4[C@H](O)C(C)=C[C@@H](C(=O)O1)[C@]34O)O2 (stereo partly drawn) ?
no (0)

Next compound: NC(Cn1ccc(=O)c(O)c1)C(=O)O (stereo not drawn)
no (0)

Next compound: CC12CCC(=O)C=C1CCC1C2[C@@H](O)CC2(C)C1CC[C@]2(O)C(=O)COP(=O)(O)O (stereo partly drawn)
no (0)
